experimentNotes: in vitro
recordedConditions: human, hela cells, % viability
outcomeMeasure: viability at 28.5 h, 10 µM (%)
Your answer should be a plain number; it is taken to be in %.

| compound | unitsText | viability at 28.5 h, 10 µM |
| --- | --- | --- |
| O=C(Cc1ccccc1)N1CCN(c2ncccn2)CC1 [CBK144518] | % | 116 |

Request: Recorded viability at 28.5 h, 10 µM of Cc1ccc(NC(=O)CN2C(=O)c3ccccc3C2=O)c(C(=O)O)c1 [CBK262837] , please.
Result: 87.5

Request: Recorded viability at 28.5 h, 10 µM of c1ccc(CCNc2nc(-c3cccnc3)nc3ccccc23)cc1 [CBK263672] , please.
Result: 105

Request: Recorded viability at 28.5 h, 10 µM of CN1C(=O)c2ccc(NS(C)(=O)=O)cc2C1=O [CBK038158] , please.
Result: 104

Request: Recorded viability at 28.5 h, 10 µM of CCCCn1c(SCC(=O)N(C)Cc2cnn(-c3ccccc3)c2)n[nH]c1=O [CBK296732] , please.
Result: 106

----------
experimentNotes: in vitro
Set-up: Viability of infected HeLa host cells, resazurin conversion, bulk resorufin fluorescence relative to DMSO
recordedConditions: human, hela cells; bulk resorufin, mean of 3
This listing pairs compounds with measured viability at 28.5 h, 0.000416667 µM.
Your answer should be a plain number; it is taken to be in %.

Solved entries:
| compound | unitsText | viability at 28.5 h, 0.000416667 µM |
| --- | --- | --- |
| CCCCc1ccc(NC(=N)Nc2nc(C)cc(C)n2)cc1 [c33e] | % | 90.9 |
| CCCCc1ccc(Nc2csc(N)n2)cc1 [c11e] | % | 97.7 |
| CC(=O)N1CCc2sccc2C1c1ccccc1NCc1ccoc1 (stereo not shown) [c28e] | % | 92.9 |

Request: Recorded viability at 28.5 h, 0.000416667 µM of COc1c(Br)cc2c(cc(C)n2-c2ccccc2)c1OCC(O)CNC(C)C (stereo not shown) [c5e] , please.
Result: 87.7

----------
experimentNotes: in vitro
recordedConditions: human, hela cells, % viability
This listing pairs compounds with measured viability at 28.5 h, 10 µM.
Your answer should be a plain number; it is taken to be in %.

Solved entries:
| compound | viability at 28.5 h, 10 µM (%) |
| --- | --- |
| N#Cc1cccc(CN2C[C@H](O)C[C@H]2c2nc(Cc3ccccc3)no2)c1 | 87.5 |
| O=C(c1nccc2ccccc12)N1CCc2ccccc21 | 93.5 |
| CC1(C)Cc2nc(N3CCOCC3)ncc2C(NC(=O)C2CCC2)C1 (centres unmarked) | 83.8 |
| Cc1cc(=O)n(CC(=O)NC(Cc2ccncc2)[C@H]2C[C@H](O)C2)nc1C (some centres unmarked) | 101 |

Request: Recorded viability at 28.5 h, 10 µM of CCCc1[nH]nc(O)c1Cc1cc(F)ccc1Br , please.
Result: 94.6

----------
This listing pairs molecules with measured viability at 28.5 h, 10 µM.
experimentNotes: in vitro
recordedConditions: human, hela cells, % viability
Your answer should be a plain number; it is taken to be in %.

Solved entries:
| molecule | viability at 28.5 h, 10 µM [%] |
| --- | --- |
| Nc1ccccc1Sc1ccc(C(F)(F)F)cn1 [CBK093782] | 91.9 |
| COc1ccc(/C=C/C(=O)NCc2ccc(S(N)(=O)=O)cc2)cc1OC [CBK265483] | 91 |
| Cc1ccc(OCC(=O)N2CCN(S(=O)(=O)c3ccc4ccccc4c3)CC2)cc1 [CBK264200] | 115 |
| Cc1nc(NS(=O)(=O)c2cc(Br)c(Cl)s2)sc1C(=O)O [CBK045560] | 96 |

Continue with the molecule presented below.
Request: Recorded viability at 28.5 h, 10 µM of O=C(O)CC1C(=O)NCCN1Cc1ccccc1Cl (centres unmarked) [CBK270114] , please.
Result: 93

----------
This listing pairs compounds with measured viability at 28.5 h, 10 µM.
experimentNotes: in vitro
recordedConditions: human, hela cells, % viability
Your answer should be a plain number; it is taken to be in %.

Solved entries:
| compound | observed |
| --- | --- |
| O=C(NCc1cc(C2CC2)[nH]n1)C1(c2ccccc2F)CC1 | 97.6 |
| O=C(Nc1cccc(C(F)(F)F)c1)N1CCC(n2c(=O)[nH]c3ccccc32)CC1 | 84.6 |
| Cn1cnc2cc(-c3nnn[nH]3)ccc21 | 90.2 |
| c1ccc(N2CCOCC2)c(COc2cncc(N3CCNCC3)n2)c1 [CBK172351G] | 105 |
| O=C(Cc1ccc2c(c1)CCCO2)Nc1c(OCCn2cccn2)ccc2ccccc12 | 96.9 |

Request: Recorded viability at 28.5 h, 10 µM of Cc1ccn2cc(CNC(=O)CCC(C)N3CCN(C)CC3)nc2c1 (stereo not drawn) , please.
Result: 97.2

Request: Recorded viability at 28.5 h, 10 µM of O=C(O)CCSCc1ccc([N+](=O)[O-])cc1 , please.
Result: 103

Request: Recorded viability at 28.5 h, 10 µM of CC(C)CN1CCCN(S(=O)(=O)c2ccc(-n3cnc(Cl)c3Cl)cc2)CC1 , please.
Result: 88.5

Request: Recorded viability at 28.5 h, 10 µM of O=C(N[C@@H]1CNCCC[C@H]1O)c1ccc(OCCN2CCOCC2)cc1 , please.
Result: 98.3

----------
experimentNotes: in vitro
recordedConditions: human, hela cells, % viability
Just a reminder that ties go to Condition not met: only viability at 28.5 h, 10 µM strictly below 90% counts as Condition met.

Request: Please state whether viability at 28.5 h, 10 µM is below 90% for O=C(Nc1ccc(S(=O)(=O)N2CCCCC2)cc1)c1ccc(CN2CCOCC2)cc1
Result: Condition not met

Request: Please state whether viability at 28.5 h, 10 µM is below 90% for COc1cc(-c2ccc(Nc3cccnc3)nc2)cc(OC)c1OC
Result: Condition met

Request: Please state whether viability at 28.5 h, 10 µM is below 90% for O=[N+]([O-])c1ccc(CN2CCC(Oc3nccnc3OCC3COc4ccccc4O3)CC2)cc1 (stereo not drawn) [CBK082984T]
Result: Condition not met

Request: Please state whether viability at 28.5 h, 10 µM is below 90% for c1ccc(CCN2CCC(Oc3cncc(OCC4COc5ccccc5O4)n3)C2)cc1 (stereo not drawn)
Result: Condition not met

Request: Please state whether viability at 28.5 h, 10 µM is below 90% for CCOc1nc2c(c(C(F)(F)F)n1)CC(C)C/C2=C\c1ccccc1 (stereo not drawn)
Result: Condition not met

Request: Please state whether viability at 28.5 h, 10 µM is below 90% for Cc1cccc(OCCOc2ccc(Br)cc2/C=C2\SC(=N)NC2=O)c1
Result: Condition not met

----------
experimentNotes: in vitro
recordedConditions: human, hela cells, % viability
outcomeMeasure: viability at 28.5 h, 10 µM (%)
Your answer should be a plain number; it is taken to be in %.

Solved entries:
| compound | unitsText | viability at 28.5 h, 10 µM |
| --- | --- | --- |
| CC(=O)Nc1ccc(-c2ccc(C(=O)N3CCN(C(=O)OCc4ccccc4)CC3)cn2)cc1 | % | 87.6 |
| CCS(=O)(=O)Nc1ccc(C2=NN(S(=O)(=O)c3ccc(F)cc3)C(c3ccccc3C)C2)cc1 (centres unmarked) | % | 103 |
| COc1ccc(NCC(=O)N/N=C(\C)c2ccccc2O)cc1 | % | 86.3 |
| O=C1CCC(=O)N1CCOc1nccnc1OC1CCN(Cc2ccccc2-c2ccccc2)CC1 | % | 110 |
| CN(C)CCN(C)c1cncc(-c2cccc(/C=C/C(=O)O)c2)n1 | % | 99.5 |

Request: Recorded viability at 28.5 h, 10 µM of COc1ccc(NC(=O)CC(CN(C)Cc2ccccc2)C(=O)O)cc1 (centres unmarked) , please.
Result: 93.5

Request: Recorded viability at 28.5 h, 10 µM of CC(CC(=O)O)CC(=O)N1CCN(c2ccccn2)CC1 (centres unmarked) , please.
Result: 107

Request: Recorded viability at 28.5 h, 10 µM of O=C(O)/C(=N\O)c1ccc(CCc2ccccc2)s1 , please.
Result: 90.8

Request: Recorded viability at 28.5 h, 10 µM of NNC(=O)CSc1nnc2ccc(C(F)(F)F)cn12 , please.
Result: 90.3

Request: Recorded viability at 28.5 h, 10 µM of COc1ccc(CCNC(=O)N2CCCCC2CO)cc1 (centres unmarked) , please.
Result: 92.8

Request: Recorded viability at 28.5 h, 10 µM of O=C(c1cc(F)c(F)cc1F)N1CCC2(CCCN(Cc3cc(=O)[nH]c(=O)[nH]3)C2)C1 (centres unmarked) , please.
Result: 101

Request: Recorded viability at 28.5 h, 10 µM of Cc1cc(Cl)c(S(=O)(=O)Nc2cccnc2)cc1OCC(=O)NC1CCCCC1 , please.
Result: 92.7

Request: Recorded viability at 28.5 h, 10 µM of COc1cc2c(cc1OC)C(C)N(S(=O)(=O)c1cn(C)cn1)CC2 (centres unmarked) , please.
Result: 112

Request: Recorded viability at 28.5 h, 10 µM of O=c1[nH]c(-c2ccccc2)nc2c1CN(Cc1ccc(F)cc1)CC2 , please.
Result: 93.3
